# experimental_target: UniProt:Q9BY41
# Sequence (Q9BY41 whole entry, the tested form may be a part): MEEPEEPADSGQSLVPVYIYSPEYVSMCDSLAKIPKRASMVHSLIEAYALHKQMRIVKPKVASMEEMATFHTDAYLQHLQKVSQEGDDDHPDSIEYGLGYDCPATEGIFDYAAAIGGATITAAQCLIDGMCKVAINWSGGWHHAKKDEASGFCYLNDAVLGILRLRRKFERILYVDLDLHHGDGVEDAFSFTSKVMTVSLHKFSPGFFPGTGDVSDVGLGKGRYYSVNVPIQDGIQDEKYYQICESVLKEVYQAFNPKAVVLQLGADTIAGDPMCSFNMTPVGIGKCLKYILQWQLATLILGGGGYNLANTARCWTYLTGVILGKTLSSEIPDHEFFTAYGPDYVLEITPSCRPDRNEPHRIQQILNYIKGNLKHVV
# experimental_protocol: Inhibition of HDAC8 (unknown origin) using p53 (379 to 382 residues)(RHK(Ac)K(ac)AMC) as substrate by fluorescent method
pIC50: −log10 of the molar value.
recorded_endpoint: pIC50

Exercise: Reported pIC50, compound Cn1cc(-c2ccc(S(=O)(=O)n3ccc(/C=C/C(=O)Nc4ccccc4N)c3)cc2)cn1 : ____
Key: < 5.00

====

# experimental_target: UniProt:Q9BY41
# experimental_protocol: Inhibition of recombinant human C-terminal His-tagged HDAC8 expressed in baculovirus infected sf9 cells using acetyl-lysine tripeptide as substrate preincubated for 10 mins followed by substrate addition and shaken for 5 secs and measured over 30 mins
recorded_endpoint: IC50

Exercise: Reported IC50, compound Nc1ccc(-c2cccs2)cc1NC(=O)c1ccc2nc(N3CCNCC3)ccc2c1 : ____
Key: > 20 µM

Source listed as ChEMBL document CHEMBL4765362.
